System: HCI-024 (organoid from a breast cancer xenograft)
Assay: CTG-3D luminescence at 96 h relative to day-0 seeding control (ratio to day 0); higher = more growth / less cytotoxicity; PDxO 3D drug screen, 96 h, CTG-3D normalised to day-0 seeding control.
Settings: 0.005 µM; days in culture: 163
value.kind: CTG-3D luminescence at 96 h
// keep it numeric: no unit symbol after the value

Per the record, NC1(C(=O)N[C@@H](CCO)c2ccc(Cl)cc2)CCN(c2nc[nH]c3nccc2-3)CC1 has CTG-3D luminescence at 96 h of 1.93

What the record says about C=CCn1c(=O)c2cnc(Nc3ccc(N4CCN(C)CC4)cc3)nc2n1-c1cccc(C(C)(C)O)n1 : CTG-3D luminescence at 96 h is 1.86

For NC(=O)c1cccc2cn(-c3ccc([C@@H]4CCCNC4)cc3)nc12 the compound record lists CTG-3D luminescence at 96 h as 1.82

Noted for C/C=C1\NC(=O)[C@H]2CSSCC/C=C/[C@H](CC(=O)N[C@H](C(C)C)C(=O)N2)OC(=O)[C@H](C(C)C)NC1=O : its CTG-3D luminescence at 96 h reads 0.576

Field CTG-3D luminescence at 96 h (entry NC(=O)Nc1cc(-c2cccc(F)c2)sc1C(=O)N[C@H]1CCCNC1 ) reads 2.02

Input Cc1nc(-c2cn3c(n2)-c2ccc(-c4cnn(C(C)(C)C(N)=O)c4)cc2OCC3)n(C(C)C)n1 . Output CTG-3D luminescence at 96 h: 1.7

The measured CTG-3D luminescence at 96 h associated with Nc1ccn([C@@H]2O[C@H](CO)[C@@H](O)C2(F)F)c(=O)n1 reads 1.78

CTG-3D luminescence at 96 h reading for O=C(c1ccc(F)c(F)c1Nc1ccc(I)cc1F)N1CC(O)([C@@H]2CCCCN2)C1 : 1.89

CTG-3D luminescence at 96 h reading for COc1cccc2c1C(=O)c1c(O)c3c(c(O)c1C2=O)C[C@@](O)(C(=O)CO)C[C@@H]3O[C@H]1C[C@H](N)[C@H](O)[C@H](C)O1 : 1.96

* * *

Test system: HCI-016 (organoid from a triple-negative breast cancer xenograft)
Test: CTG-3D luminescence at 96 h relative to day-0 seeding control (ratio to day 0); higher = more growth / less cytotoxicity; PDxO 3D drug screen, 96 h, CTG-3D normalised to day-0 seeding control.
Settings: 625 fM; days in culture: 190
Below, each entry is listed alongside its reported CTG-3D luminescence at 96 h.

1. NC(=O)Nc1cc(-c2cccc(F)c2)sc1C(=O)N[C@H]1CCCNC1 1.32
2. COc1cc2c(Oc3ccc4[nH]c(C)cc4c3F)ncnc2cc1OCCCN1CCCC1 1.13
3. C/C=C1\NC(=O)[C@H]2CSSCC/C=C/[C@H](CC(=O)N[C@H](C(C)C)C(=O)N2)OC(=O)[C@H](C(C)C)NC1=O 1.55

Please turn your attention to the following entry.
Let me check: C[C@@H]1COCCN1c1cc(C2([S@](C)(=N)=O)CC2)nc(-c2cc[nH]c3nccc2-3)n1 , system HCI-016, measured CTG-3D luminescence at 96 h is 1.28

* * *

As shown below, each of these compounds has a reported CTG-3D luminescence at 96 h value.
System: HCI-012 (organoid from a breast cancer xenograft)
Experiment: CTG-3D luminescence at 96 h relative to day-0 seeding control (ratio to day 0); higher = more growth / less cytotoxicity; PDxO 3D drug screen, 96 h, CTG-3D normalised to day-0 seeding control.
Settings: 100 µM; days in culture: 162
Give the figure by itself; no unit, no explanation.

The recorded CTG-3D luminescence at 96 h for CCN1CCN(Cc2ccc(Nc3ncc(F)c(-c4cc(F)c5nc(C)n(C(C)C)c5c4)n3)nc2)CC1 is 0.0215

* * *

Reported CTG-3D luminescence at 96 h values follow for various compounds
System: HCI-002 (organoid from a triple-negative breast cancer xenograft)
Assay: CTG-3D luminescence at 96 h relative to day-0 seeding control (ratio to day 0); higher = more growth / less cytotoxicity; PDxO 3D drug screen (set 2), 96 h, CTG-3D normalised to day-0 seeding control.
Conditions: 0.1 µM; days in culture: 155

1) CC(=O)c1c(C)c2cnc(Nc3ccc(N4CCNCC4)cn3)nc2n(C2CCCC2)c1=O 4.73

The value of CTG-3D luminescence at 96 h recorded for CO[C@H]1C[C@@H]2CC[C@@H](C)[C@@](O)(O2)C(=O)C(=O)N2CCCC[C@H]2C(=O)O[C@H]([C@H](C)C[C@@H]2CC[C@@H](O)[C@H](OC)C2)CC(=O)[C@H](C)/C=C(\C)[C@@H](O)[C@@H](OC)C(=O)[C@H](C)C[C@H](C)/C=C/C=C/C=C/1C when tested on HCI-002 reads 3.82

Item: CS(=O)(=O)CCNCc1ccc(-c2ccc3ncnc(Nc4ccc(OCc5cccc(F)c5)c(Cl)c4)c3c2)o1 | System: HCI-002 | CTG-3D luminescence at 96 h: 7.04

Observed CTG-3D luminescence at 96 h, HCI-002, Nc1cc(C(F)(F)F)c(-c2cc(N3CCOCC3)nc(N3CCOCC3)n2)cn1 : 5.13

Observed CTG-3D luminescence at 96 h, HCI-002, CCOc1ccn(-c2ccc(F)cc2)c(=O)c1C(=O)Nc1ccc(Oc2ccnc(N)c2Cl)c(F)c1 : 6.6

Test item C[C@@H](Nc1cc(F)cc(F)c1)c1cc(C(=O)N(C)C)cc2c(=O)cc(N3CCOCC3)oc12 ; HCI-002; reported CTG-3D luminescence at 96 h was 5.43

# lookup: CC(C)n1nc(-c2ccc3oc(N)nc3c2)c2c(N)ncnc21 on HCI-002, CTG-3D luminescence at 96 h = 2.38

* * *

System: HCI-025 (organoid from a breast cancer xenograft)
Assay: CTG-3D luminescence at 96 h relative to day-0 seeding control (ratio to day 0); higher = more growth / less cytotoxicity; PDxO 3D drug screen, 96 h, CTG-3D normalised to day-0 seeding control.
Details: 10 µM; days in culture: 209
Label t when CTG-3D luminescence at 96 h is at or above 1; anything below gets f.

Before answering, review these 5 worked examples.
compound	subject.of.test	discrete.label
CC(=O)O[C@H]1C(=O)[C@@]2(C)[C@H]([C@H](OC(=O)c3ccccc3)[C@]3(O)C[C@H](OC(=O)[C@H](O)[C@@H](NC(=O)c4ccccc4)c4ccccc4)C(C)=C1C3(C)C)[C@]1(OC(C)=O)CO[C@@H]1C[C@@H]2O [paclitaxel]	HCI-025	f
Nc1ccn([C@@H]2O[C@H](CO)[C@@H](O)C2(F)F)c(=O)n1 [gemcitabine]	HCI-025	f
CCN1CCN(Cc2ccc(Nc3ncc(F)c(-c4cc(F)c5nc(C)n(C(C)C)c5c4)n3)nc2)CC1 [abemaciclib]	HCI-025	t
NC(=O)c1cccc2cn(-c3ccc([C@@H]4CCCNC4)cc3)nc12 [niraparib]	HCI-025	f
C=CC(=O)N1CCC[C@@H](n2nc(-c3ccc(Oc4ccccc4)cc3)c3c(N)ncnc32)C1 [ibrutinib]	HCI-025	t

-- ask Textbook exercise: given the entry O=C(/C=C/c1cccnc1)NCCCCC1CCN(C(=O)c2ccccc2)CC1 [FK866] , state whether its CTG-3D luminescence at 96 h is greater than or equal to 1.
-- reply f

-- ask Please check the record C[C@]12CC[C@@H]3c4ccc(O)cc4C[C@@H](CCCCCCCCC[S+]([O-])CCCC(F)(F)C(F)(F)F)[C@H]3[C@@H]1CC[C@@H]2O (stereo partly drawn) [fulvestrant] and state if its CTG-3D luminescence at 96 h is at or above 1.
-- reply t

-- ask Reported CTG-3D luminescence at 96 h reaches at least 1 for CC[C@H](NC(=O)[C@H](C)NC)C(=O)N1C[C@@H](O)C[C@H]1Cc1c(-c2[nH]c3cc(F)ccc3c2C[C@@H]2C[C@H](O)CN2C(=O)[C@H](CC)NC(=O)[C@H](C)NC)[nH]c2cc(F)ccc12 [birinapant] ?
-- reply f

* * *

Test system: HCI-002
Assay: CTG-3D luminescence at 96 h relative to day-0 seeding control (ratio to day 0); higher = more growth / less cytotoxicity; PDxO 3D drug screen, 96 h, CTG-3D normalised to day-0 seeding control.
Details: 0.1 µM; days in culture: 91
value.kind: CTG-3D luminescence at 96 h
Number, no unit, nothing else.

CTG-3D luminescence at 96 h in this record for CNC(=O)c1cccc(-c2ccc3c(N4CCOC[C@@H]4C)nc(N4CCOC[C@@H]4C)nc3n2)c1 [vistusertib] : 2.8

Entry C=CCn1c(=O)c2cnc(Nc3ccc(N4CCN(C)CC4)cc3)nc2n1-c1cccc(C(C)(C)O)n1 [adavosertib] — recorded CTG-3D luminescence at 96 h = 3.35

Record Cc1cc(Nc2ncnc3ccc(NC4=NC(C)(C)CO4)cc23)ccc1Oc1ccn2ncnc2c1 [tucatinib] . Reported CTG-3D luminescence at 96 h: 2.79

Item: CC(C)(C(=O)NCC(F)(F)C(F)(F)F)C(=O)N[C@@H]1C(=O)Nc2ccccc2-c2ccccc21 | CTG-3D luminescence at 96 h: 3.91

Sourced from the supplement of paper PMC8882468
